# credit: patent US20260250318A1

Each entry below lists one item and its recorded Fold Enrichment relative to AAV9, Brain (Mouse) value.
tested on: brain; experiment: Matured TTM-001 and TTM-002 variants, NGS enrichment in mouse brain; type: in vivo, mice; settings: NGS fold-enrichment, mouse brain, relative to AAV9 control
I only need the number, in fold, no unit after it.

The examples below pair each entry with its known result.
sequence.entry	target.or.test.system	assay.value
KTSNGYDSPHKSGQKQQT	brain	8.813
KTVNGHDSPHKIGHNQQT	brain	10.167

Ask: Query for brain: what Fold Enrichment relative to AAV9, Brain (Mouse) does the record show for `KTINGHDSPHKSGQLVIT` ?
Result: 11.323

Ask: Query for brain: what Fold Enrichment relative to AAV9, Brain (Mouse) does the record show for `KTINGSGSPHSKAQHRIT` ?
Result: 127.000

* * *

test system: brain; experiment: Maturation of TTM-001 capsid, NGS enrichment in brain of CD-1 Outbred mice; format: in vivo; conditions: NGS fold-enrichment of TTM-001 matured AAV capsid variants in the brain of CD-1 Outbred mice; intravenous 1.0×10^12 VG/dose; 14 days in life; RNA; relative to non-matured TTM-001 control
Quick rule for you: Fold enrichment over TTM-001 under 3 fold gets Criterion met, anything else gets Criterion not met.

Ask: Consider the sequence `KTINGSGSPHSKASKNQT` . Is its Fold enrichment over TTM-001 strictly less than 3 fold?
Result: Criterion met

Ask: Consider the sequence `KTINGSGSPHSKTRMQQT` . Is its Fold enrichment over TTM-001 strictly less than 3 fold?
Result: Criterion met

Ask: Consider the sequence `KTINGSGSPHLSCQNQQT` . Is its Fold enrichment over TTM-001 strictly less than 3 fold?
Result: Criterion met

* * *

Each entry below lists one item and its recorded Fold enrichment over AAV9 in the brain of Mice (C57Bl/6) value.
System: brain
Experiment: NGS fold enrichment of synthetic library (passage 3) in C57Bl/6 mice, first cross-species screen
Type: in vivo
Settings: synthetic library passage 3, intravenous, RNA from brain of C57Bl/6 mice, NGS, relative to wild-type AAV9
Method: After creation of the synthetic library with the sub-selected variants, the synthetic library was screened (passage 3) in two NHPs (2-4 years of age) and two strains of mice, BALB/c (n=3, 6-8 weeks of age) and C57Bl/6 mice (n=3, 6-8 weeks of age), in a first cross-species evolution screen. The animals were injected intravenously with the synthetic library. […]
I only need the number, in fold, no unit after it.

The examples below pair each entry with its known result.
sequence.entry	assay.value
GQLGSVGSGQDQQT	1.020
GSGQLPQSGLNQQT	0.641
GSGYVITGSQNQQT	0.971
GSGQNQQLKNSTST	1.063
GTTAHQPSGQNQQT	0.726
GSGSQHSKAQNQQT	0.638
GSGQNQQPSLRQST	1.315
GSGQNQQTRQEGST	0.645
GLHGMTLSGQNQQT	0.470
GSGIPSVKFQNQQT	0.364

Turning now to a further record.
Ask: Fold enrichment over AAV9 in the brain of Mice (C57Bl/6) lookup needed for `GSGQNLHSGLPQQT` , thanks.
Result: 1.054

* * *

test system: brain, spinal cord, and DRG of the NHPs; assay: NGS fold enrichment of synthetic library (passage 3) in NHPs, first cross-species screen; format: in vivo, cynomolgus macaques (Macaca fascicularis); settings: synthetic library passage 3, intravenous, RNA NGS, spinal cord of NHPs, relative to wild-type AAV9
Each entry below lists one item and its recorded Fold enrichment over AAV9 in the spinal cord of NHPs value.
I only need the number, in fold, no unit after it.

sequence.entry	target.or.test.system	assay.value
GSGKNQQRPGLDQT	brain, spinal cord, and DRG of the NHPs	1.557
GNGQNQQHSILHGT	brain, spinal cord, and DRG of the NHPs	0.000
GSGSHRDVSQNQQT	brain, spinal cord, and DRG of the NHPs	4.022
GSGQNQQTTASSHT	brain, spinal cord, and DRG of the NHPs	7.404
GSGHMTYREKNQQT	brain, spinal cord, and DRG of the NHPs	5.267
GSGQNQHSVQVRQT	brain, spinal cord, and DRG of the NHPs	1.909

Ask: Fold enrichment over AAV9 in the spinal cord of NHPs lookup needed for `GNGHSMRPNQNQQT` , thanks.
Result: 2.341

Ask: Fold enrichment over AAV9 in the spinal cord of NHPs lookup needed for `GSRSTGPSGQNQQT` , thanks.
Result: 2.479

Ask: Fold enrichment over AAV9 in the spinal cord of NHPs lookup needed for `GSGQNQQSAREGLT` , thanks.
Result: 5.632

Ask: Fold enrichment over AAV9 in the spinal cord of NHPs lookup needed for `GSGQNGGSSNRQQT` , thanks.
Result: 2.594

Ask: Fold enrichment over AAV9 in the spinal cord of NHPs lookup needed for `GSGLSVHLAQNQQT` , thanks.
Result: 1.234

Ask: Fold enrichment over AAV9 in the spinal cord of NHPs lookup needed for `GSAAMSVRGQNQQT` , thanks.
Result: 2.386

Ask: Fold enrichment over AAV9 in the spinal cord of NHPs lookup needed for `GIILGASSGQNQQT` , thanks.
Result: 4.868

Ask: Fold enrichment over AAV9 in the spinal cord of NHPs lookup needed for `GSGQNQQPLDTSRT` , thanks.
Result: 0.775

Ask: Fold enrichment over AAV9 in the spinal cord of NHPs lookup needed for `GPTNGRSSGQNQQT` , thanks.
Result: 8.903

Ask: Fold enrichment over AAV9 in the spinal cord of NHPs lookup needed for `GSHTLVVSGQNQQT` , thanks.
Result: 1.535

Ask: Fold enrichment over AAV9 in the spinal cord of NHPs lookup needed for `GSGTVHAATQNQQT` , thanks.
Result: 1.676

Ask: Fold enrichment over AAV9 in the spinal cord of NHPs lookup needed for `GHLTMHNSGQNHQT` , thanks.
Result: 1.798

Ask: Fold enrichment over AAV9 in the spinal cord of NHPs lookup needed for `GSGQNQQTSLSNTA` , thanks.
Result: 1.186

Ask: Fold enrichment over AAV9 in the spinal cord of NHPs lookup needed for `GSGQNQQVIPNSKT` , thanks.
Result: 1.036

Ask: Fold enrichment over AAV9 in the spinal cord of NHPs lookup needed for `GSGQNQQTSTTPLP` , thanks.
Result: 2.823
